Molecular target: Prostacyclin receptors (IP receptors) of human thrombocyte membranes (Homo sapiens, UniProt P43119)
Construct: Thrombocyte membranes are obtained by centrifuging 50 ml of human blood
Sequence (P43119 whole entry): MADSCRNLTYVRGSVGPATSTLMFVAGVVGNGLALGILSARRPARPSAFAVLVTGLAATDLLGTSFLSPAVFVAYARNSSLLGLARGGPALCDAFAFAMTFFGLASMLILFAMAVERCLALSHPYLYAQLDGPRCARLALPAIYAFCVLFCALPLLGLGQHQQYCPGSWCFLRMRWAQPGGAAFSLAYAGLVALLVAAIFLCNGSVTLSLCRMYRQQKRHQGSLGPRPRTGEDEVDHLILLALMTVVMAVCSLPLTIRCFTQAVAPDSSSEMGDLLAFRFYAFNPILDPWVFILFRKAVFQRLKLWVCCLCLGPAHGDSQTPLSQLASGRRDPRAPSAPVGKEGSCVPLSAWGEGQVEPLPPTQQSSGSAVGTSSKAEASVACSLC
Assay: Binding to prostacyclin receptors (IP receptors) of human thrombocyte membranes, 3H-Iloprost displacement
Details: 3 nM 3H-Iloprost, 60 min, room temperature
Description: B-1. Studies of Binding to Prostacyclin Receptors (IP Receptors) of Human Thrombocyte Membranes Thrombocyte membranes are obtained by centrifuging 50 ml of human blood (Buffy coats with CDP Stabilizer, from Maco Pharma, Langen) for 20 min at 160×g. Remove the supernatant (platelet-rich plasma, PRP) and then centrifuge again at 2000×g for 10 min at room temperature. […]
Strictly below 200 nM in IC50: Yes. Otherwise: No.

Input: Below 200 nM on IC50? Entry `CCc1ccc(-c2c(-c3ccccc3)sc3ncnc(O[C@H](C)CCCCC(=O)O)c23)cc1`
Output: No

Input: Does the reported IC50 of `COc1ccc(-c2c(-c3ccccc3)oc3cccc(OCCCCCC(=O)O)c23)cc1` stay below 200 nM?
Output: No

Input: Take the molecule `COc1ccc(-c2c(-c3ccccc3)oc3ccnc(NCC(C)(C)COCC(=O)O)c23)cc1` and say whether its IC50 is less than 200 nM.
Output: Yes

Input: Does this molecule meet the criterion IC50 < 200 nM? `CCc1ccc(-c2c(-c3ccccc3)oc3nccc(OCCOCCC(=O)O)c23)cc1`
Output: No

Input: For this molecule, is IC50 lower than 200 nM? `CCc1ccc(-c2c(-c3ccccc3)oc3nccc(NCC(C)(C)COCCC(=O)O)c23)cc1`
Output: Yes

Input: Given `CCc1ccc(-c2c(-c3ccccc3)oc3nccc(O[C@H](C)CCCCC(=O)O)c23)cc1` , is recorded IC50 strictly lower than 200 nM?
Output: Yes

Input: Threshold test, IC50 < 200 nM: `COc1ccc(-c2c(-c3ccccc3)[nH]c3ncnc(O[C@H](C)CCCCC(=O)O)c23)cc1`
Output: Yes
